Parameter Molar Ellipticity TFE − Molar Ellipticity Benign: see the listing below.
Experiment: Circular dichroism (CD) analysis of alpha-helicity
Type: physicochemical
Conditions: difference 50% TFE minus benign buffer, 222 nm
Where a SMILES comes first, the peptide text is derived from it. Bridges are numbered along the chain shown (N, C = ends). [ ]: non-standard residue; d: D form. R8 = C=CCCCCCC[C@@](C)(N)C(=O)O; S5 = C=CCCC[C@](C)(N)C(=O)O; Nle = CCCC[C@H](N)C(=O)O
Report the figure in deg cm^2dmol^−1 without appending any unit label.

Take a look at these entries with their results.
CC(=O)N[C@@H](CC(C)C)C(=O)N[C@H](C(=O)N[C@@H](Cc1ccccc1)C(=O)N[C@]1(C)CCCCCCC=CCCC[C@@](C)(C(=O)N[C@@H](C)C(=O)N[C@@H](C)C(=O)N[C@@H](C)C(=O)N[C@H](C)C(N)=O)NC(=O)[C@H](CC(C)C)NC(=O)[C@H](CCC(N)=O)NC(=O)[C@H](C)NC(=O)[C@H](Cc2c[nH]c3ccccc23)NC(=O)[C@H](Cc2ccc(O)cc2)NC(=O)[C@H](C)NC1=O)[C@@H](C)O (single isomer, unassigned) [compound 230] | −17760.8
CC[C@H](C)[C@H](NC(=O)[C@H](C)NC(=O)[C@H](C)NC(=O)[C@]1(C)CCC/C=C/CCCCCC[C@@](C)(NC(=O)[C@H](Cc2ccccc2)NC(=O)[C@@H](NC(=O)[C@H](CC(C)C)NC(C)=O)[C@@H](C)O)C(=O)N[C@@H](C)C(=O)N[C@@H](Cc2ccc(O)cc2)C(=O)N[C@@H](Cc2c[nH]c3ccccc23)C(=O)N[C@@H](C)C(=O)N[C@@H](CCC(N)=O)C(=O)N[C@@H](CC(C)C)C(=O)N1)C(=O)N[C@H](C)C(N)=O [compound 71] | −17835.9
CC(=O)N[C@@H](CC(C)C)C(=O)N[C@H](C(=O)N[C@@H](Cc1ccccc1)C(=O)N[C@]1(C)CCCCCCC=CCCC[C@@](C)(C(=O)N[C@@H](Cc2c[nH]cn2)C(=O)N[C@@H](Cc2c[nH]cn2)C(=O)N[C@@H](CC(C)C)C(=O)N[C@H](C)C(N)=O)NC(=O)[C@H](CC(C)C)NC(=O)[C@H](CCC(N)=O)NC(=O)[C@H](C)NC(=O)[C@H](Cc2c[nH]c3ccccc23)NC(=O)[C@H](Cc2ccc(O)cc2)NC(=O)[C@H](C)NC1=O)[C@@H](C)O [compound 43] (Ac-LTF[R8]AYWAQL[S5]HHL[dA]-NH2; staple 4-11) | 2912.9
CC(=O)N[C@@H](CC(C)C)C(=O)N[C@H](C(=O)N[C@@H](Cc1ccccc1)C(=O)N[C@]1(C)CCCCCCC=CCCC[C@@](C)(C(=O)N[C@@H](CO)C(=O)N[C@@H](C)C(=O)N[C@@H](Cc2ccccc2)C(N)=O)NC(=O)[C@H](CC(C)C)NC(=O)[C@H](CCC(N)=O)NC(=O)[C@H](C)NC(=O)[C@H](Cc2c[nH]c3ccccc23)NC(=O)[C@H](Cc2ccc(O)cc2)NC(=O)[C@H](C)NC1=O)[C@@H](C)O [compound 7] (Ac-LTF[R8]AYWAQL[S5]SAF-NH2; staple 4-11) | −20045.4
CC(=O)N[C@@H](CC(C)C)C(=O)N[C@H](C(=O)N[C@@H](Cc1ccccc1)C(=O)N[C@]1(C)CCCCCCC=CCCC[C@@](C)(C(=O)N[C@@H](CO)C(=O)N[C@@H](C)C(=O)N[C@@H](C)C(N)=O)NC(=O)[C@H](CC(C)C)NC(=O)[C@H](CCC(N)=O)NC(=O)[C@H](C)NC(=O)[C@H](Cc2c[nH]c3ccccc23)NC(=O)[C@H](Cc2ccc(O)cc2)NC(=O)[C@H](C)NC1=O)[C@@H](C)O [compound 11] (Ac-LTF[R8]AYWAQL[S5]SAA-NH2; staple 4-11) | 16225.2

Query block: # get_value(readout='Molar Ellipticity TFE − Molar Ellipticity Benign', item= CC(=O)N[C@@H](CC(C)C)C(=O)N[C@H](C(=O)N[C@@H](Cc1ccccc1)C(=O)N[C@]1(C)CCCCCCC=CCCC[C@@](C)(C(=O)N[C@@H](C)C(=O)N[C@@H](C)C(=O)N[C@@H](C)C(=O)N[C@@H](C)C(=O)N[C@H](C)C(N)=O)NC(=O)[C@H](CC(C)C)NC(=O)[C@H](CCC(N)=O)NC(=O)[C@H](C)NC(=O)[C@H](Cc2c[nH]c3ccccc23)NC(=O)[C@H](Cc2ccc(O)cc2)NC(=O)[C@H](C)NC1=O)[C@@H](C)O [compound 233] )
Result block: −18554.7

Query block: # get_value(readout='Molar Ellipticity TFE − Molar Ellipticity Benign', item= CCCC[C@H](NC(=O)[C@H](CCC(N)=O)NC(=O)[C@H](CCC(N)=O)NC(=O)[C@]1(C)CCCC=CCCCCCC[C@@](C)(NC(=O)[C@H](Cc2ccccc2)NC(C)=O)C(=O)N[C@@H](C)C(=O)N[C@@H](Cc2ccc(O)cc2)C(=O)N[C@@H](Cc2c[nH]c3ccccc23)C(=O)N[C@@H]([C@@H](C)O)C(=O)N[C@@H](C)C(=O)N[C@@H](CC(C)C)C(=O)N1)C(=O)N[C@@H](C(N)=O)C(C)C [compound 41] (Ac-F[R8]AYWTAL[S5]QQ[Nle][dV]-NH2; staple 2-9) )
Result block: 20410.4
